Source listed as ChEMBL document CHEMBL1614632.

Test: clinical
Details: human, in vivo, iv, Vdss
Output schema: class label derived from Vd. Mapping: one (below 0.3 L/kg), two (0.3 L/kg to below 2 L/kg), three (2 L/kg or more)

Example results:
compound: Nc1nc(/C(=N/O)C(=O)N[C@@H]2C(=O)N3C(C(=O)O)=C(/C=C4\CCN([C@@H]5CCNC5)C4=O)CS[C@H]23)ns1
assigned.class: one
//
compound: CC[C@]1(O)C[C@@H]2CN(CCc3c([nH]c4ccccc34)[C@@](C(=O)OC)(c3cc4c(cc3OC)N(C)[C@H]3[C@@](O)(C(N)=O)[C@H](O)[C@]5(CC)C=CCN6CC[C@]43[C@@H]65)C2)C1
assigned.class: three
//
compound: CO[C@@]1(NC(=O)C(C(=O)O)c2ccc(O)cc2)C(=O)N2C(C(=O)O)=C(CSc3nnnn3C)CO[C@@H]21 (stereo partly specified)
assigned.class: one
//
compound: CCCC(CCC)C(=O)O
assigned.class: one
//
compound: COc1ccc2c(c1)c(CC(=O)O)c(C)n2C(=O)c1ccc(Cl)cc1
assigned.class: one

Any idea which band Cc1onc(-c2c(Cl)cccc2Cl)c1C(=O)N[C@@H]1C(=O)N2[C@@H]1SC(C)(C)[C@@H]2C(=O)O is in?
one

Band of Cc1cc(NC(=O)C2=C(O)c3ccccc3S(=O)(=O)N2C)no1 ?
one

Which category fits this record: COCCOC(=O)C1=C(C)NC(C)=C(C(=O)OC(C)C)C1c1cccc([N+](=O)[O-])c1 (stereo unspecified)
two

State the class of the compound shown: CC(C)c1nc(N(C)S(C)(=O)=O)nc(-c2ccc(F)cc2)c1/C=C/[C@@H](O)C[C@@H](O)CC(=O)O
two

Place this compound in its band: CC(C)[C@H]1CC[C@H](C(=O)N[C@H](Cc2ccccc2)C(=O)O)CC1 [NATEGLINIDE]
one

Class (by measured Vd) for CCCCCN(C)CCC(O)(P(=O)(O)O)P(=O)(O)O
two

Where would C[C@@H]1CC(=O)NN=C1c1ccc(NN=C(C#N)C#N)cc1 land among the classes by reported Vd?
one
